The measured values listed here are drawn from patent US20240009175A9.

Hi there, I'd appreciate the recorded CYP3A4 (significant induction above 20% threshold) for every entry that follows.
# Test system: CYP3A4
# TEST_DESCRIPTION: CYP-induction assay in HepaRG cells, QuantiGene Plex 2.0 (CYP3A4 induction)
# Assay type: in vitro ADME, human
# SETUP_CONDITIONS: 48 hrs, value outside parentheses
Entry rule: numbers only, all in µM.

## Input // returns reported CYP3A4 (significant induction above 20% threshold) for input CCc1c(C(O)(c2ccccc2)c2ccccc2)nc2ccc(-c3nnn[nH]3)cn12 [Compound 4]
## Output 2.2

## Input Proceed to CCn1c(C(O)(c2ccccc2)c2ccccc2)nc2ccc(C(=O)NC[C@@H](C)O)cc21 [Reference Compound, reference compound]
## Output 4.1

## Input Proceed to CCn1c(C(O)(c2ccccc2)c2ccccc2)nc2nc(OC)c(-c3nnn[nH]3)cc21 [Compound 58]
## Output 3.8

## Input Proceed to CCn1c(C(O)(c2ccccc2)c2ccccc2)nc2nc(Cl)c(-c3nnn[nH]3)cc21 [Compound 51]
## Output 3.1

## Input Proceed to CCc1c(C(O)(c2ccccc2)c2ccccc2)nc2cc(OC)c(-c3nnn[nH]3)cn12 [Compound 2]
## Output 2.3

## Input Proceed to CCn1c(C(O)(c2ccccc2)c2ccccn2)nc2nc(OC)c(-c3nnn[nH]3)cc21 (single isomer, unassigned) [Compound 40]
## Output 6.8

## Input Proceed to CCc1c(C(O)(c2ccccc2)c2ccccc2)nn2cc(Cl)c(-c3nnn[nH]3)cc12 [Compound 21]
## Output 2.6

## Input Proceed to CCn1c(C(O)(c2ccccc2F)c2ccccc2F)nc2nc(C)c(-c3nnn[nH]3)cc21 [Compound 59]
## Output 13.4

---

# TEST_SYSTEM: human rec ACSS2 (Homo sapiens (Human))
# Sequence (Q9NR19 whole entry): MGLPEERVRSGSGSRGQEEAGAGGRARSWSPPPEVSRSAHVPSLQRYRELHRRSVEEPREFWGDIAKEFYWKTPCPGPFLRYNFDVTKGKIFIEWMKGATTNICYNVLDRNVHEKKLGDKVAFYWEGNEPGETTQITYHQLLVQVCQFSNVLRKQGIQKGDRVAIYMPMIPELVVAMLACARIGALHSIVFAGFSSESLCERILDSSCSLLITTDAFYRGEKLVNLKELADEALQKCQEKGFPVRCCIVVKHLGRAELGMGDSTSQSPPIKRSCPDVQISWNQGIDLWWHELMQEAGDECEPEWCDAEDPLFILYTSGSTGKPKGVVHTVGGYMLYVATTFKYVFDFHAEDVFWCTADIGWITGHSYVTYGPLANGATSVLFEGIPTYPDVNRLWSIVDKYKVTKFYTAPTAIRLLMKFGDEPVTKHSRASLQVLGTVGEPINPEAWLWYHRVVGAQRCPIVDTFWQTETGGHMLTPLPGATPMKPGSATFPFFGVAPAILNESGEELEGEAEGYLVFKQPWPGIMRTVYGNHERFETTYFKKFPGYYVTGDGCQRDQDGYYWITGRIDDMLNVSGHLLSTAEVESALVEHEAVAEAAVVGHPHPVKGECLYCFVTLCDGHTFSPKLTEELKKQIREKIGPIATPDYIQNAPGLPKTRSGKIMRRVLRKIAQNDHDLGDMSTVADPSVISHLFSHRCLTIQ
# TEST_DESCRIPTION: Biochemical activity ACSS2 assay (AMP-Glo)
# SETUP_CONDITIONS: human recombinant ACSS2, AMP-Glo, 180 min at 37° C.
# Excerpt: Biochemical Activity ACSS2 Assay (IC50 ACSS2 Biochemical) The biochemical activity assay for ACSS2 is based on the detection of released AMP by AMP-Glo™ Assay kit (Promega, Madison). […] The ACSS2 activity correlates with the detected luminescence signal. […]
pIC50: −log10 of the molar value.
Hi there, I'd appreciate the recorded pIC50 for every entry that follows.

## Input Please state recorded pIC50 (tested on human rec ACSS2 (Homo sapiens (Human))) of CCn1c(C(O)(c2ccccc2)c2ccncn2)nc2nc(OC)c(-c3nnn[nH]3)cc21 (racemic)
## Output 8.00 to 9.00

## Input Proceed to `CCc1c(C(O)(c2ccccc2F)c2ccccc2F)nc2cc(OC)c(-c3nnn[nH]3)cn12`
## Output 8.00 to 9.00

## Input Proceed to `CCn1c(C(O)(c2ccccc2)c2ccccc2)nc2nc(C)c(-c3nnn[nH]3)cc21`
## Output 8.00 to 9.00

---

# TEST_SYSTEM: UniProtKB Q9NR19
# TEST_DESCRIPTION: Biochemical activity ACSS2 assay (AMP-Glo)
# SETUP_CONDITIONS: human recombinant ACSS2, AMP-Glo, 180 min at 37° C.
OBSERVATION_TYPE: IC50

## Input // returns reported IC50 for input CCc1c(C(O)(c2ccccc2)c2ccccn2)nc2cc(Cl)c(-c3nnn[nH]3)cn12 (single isomer, unassigned) [Compound 8]
## Output 1 to 10 nM

## Input Proceed to CCn1c(C(O)(c2ccccc2C)c2ccccc2C)nc2nc(OC)c(-c3nnn[nH]3)cc21 [Compound 39]
## Output 10 to 100 nM

## Input Proceed to CCc1c(C(O)(c2ccccc2F)c2ccccc2F)nn2cc(Cl)c(-c3nnn[nH]3)cc12 [Compound 20]
## Output 1 to 10 nM

## Input Proceed to CCn1c(C(O)(c2ccccn2)c2cccs2)nc2nc(OC)c(-c3nnn[nH]3)cc21 (racemic) [Compound 26]
## Output 10 to 100 nM

## Input Proceed to CCn1c(C(O)(c2ccccc2)c2ccccn2)nc2nc(OC)c(-c3nnn[nH]3)cc21 (racemic) [Compound 50]
## Output 1 to 10 nM

## Input Proceed to CCc1c(C(O)(c2ccccc2)c2ccccc2)nc2ccc(-c3nnn[nH]3)cn12 [Compound 4]
## Output 10 to 100 nM

## Input Proceed to CCc1c(C(O)(c2ccccc2)c2ccccc2)nc2cc(OC)c(-c3nnn[nH]3)cn12 [Compound 2]
## Output 1 to 10 nM

## Input Proceed to CCn1c(C(O)(c2ccccc2)c2ccccn2)nc2nc(OC)c(-c3nnn[nH]3)cc21 (single isomer, unassigned) [Compound 40]
## Output 1 to 10 nM

## Input Proceed to CCn1c(C(O)(c2ccccc2)c2cccnn2)nc2nc(OC)c(-c3nnn[nH]3)cc21 (stereo not drawn) [Compound 27]
## Output 1 to 10 nM

---

Hi there, I'd appreciate the recorded IC50 for every entry that follows.
# TEST_SYSTEM: UniProtKB Q9NR19
# TEST_DESCRIPTION: Cellular assay of 14C acetate incorporation into fatty acids (IC50 ACSS2 cellular lipids)
# Format: cell-based
# SETUP_CONDITIONS: HCT-15 cells

## Input // returns reported IC50 for input CCn1c(C(O)(c2ccccc2F)c2ccccc2F)nc2nc(OC)c(-c3nnn[nH]3)cc21 [Compound 57]
## Output 0.01 to 1 nM

## Input Proceed to CCn1c(C(O)(c2ccccc2)c2nccs2)nc2nc(OC)c(-c3nnn[nH]3)cc21 (racemic) [Compound 31]
## Output 0.01 to 1 nM

## Input Proceed to CCc1c(C(O)(c2ccccc2)c2ccccc2)nc2ccc(-c3nnn[nH]3)cn12 [Compound 4]
## Output 10 to 100 nM
